test: Mouse blood levels after single intramuscular injection; format: in vivo, mice; details: in vivo, im, 20 mg/kg
Reported Endpoint: concentration at 10 min

compound="CO/N=C(\\C(=O)NC1C(=O)N2C(C(=O)[O-])=C(C[n+]3ccc4sc(C(=O)O)nc4c3)CS[C@H]12)c1csc(N)n1 (stereo partly shown)" reported_endpoint="concentration at 10 min" observed_measurement="17000 ng/mL"
compound="Nc1nc(/C(=N/OC2(C(=O)O)CCC2)C(=O)NC2C(=O)N3C(C(=O)[O-])=C(C[n+]4ccc5scnc5c4)CS[C@H]23)cs1 (stereo partly shown)" reported_endpoint="concentration at 10 min" observed_measurement="13000 ng/mL"
compound="CO/N=C(\\C(=O)NC1C(=O)N2C(C(=O)[O-])=C(C[n+]3ccc4sc(NC(C)=O)nc4c3)CS[C@H]12)c1csc(N)n1 (stereo partly shown)" reported_endpoint="concentration at 10 min" observed_measurement="24000 ng/mL"
compound="CO/N=C(\\C(=O)NC1C(=O)N2C(C(=O)[O-])=C(C[n+]3ccc4sc(C(N)=O)nc4c3)CS[C@H]12)c1csc(N)n1 (stereo partly shown)" reported_endpoint="concentration at 10 min" observed_measurement="20000 ng/mL"
compound="CO/N=C(\\C(=O)NC1C(=O)N2C(C(=O)[O-])=C(C[n+]3ccc4scnc4c3)CS[C@H]12)c1csc(N)n1 (stereo partly shown)" reported_endpoint="concentration at 10 min" observed_measurement="20000 ng/mL"
compound="CO/N=C(\\C(=O)NC1C(=O)N2C(C(=O)[O-])=C(C[n+]3ccc4sc(NC(=O)CN)nc4c3)CS[C@H]12)c1csc(N)n1 (stereo partly shown)" reported_endpoint="concentration at 10 min" observed_measurement="15000 ng/mL"
compound="CO/N=C(\\C(=O)NC1C(=O)N2C(C(=O)[O-])=C(C[n+]3ccc4sc(N)nc4c3)CSC12)c1csc(N)n1 (stereo not shown)" reported_endpoint="concentration at 10 min" observed_measurement="14000 ng/mL"

* * *

assay: Solubility in water; type: physicochemical; conditions: water; sodium salt
Reported Endpoint: solubility

compound="CC(C)(O/N=C(\\C(=O)NC1C(=O)N2C(C(=O)[O-])=C(C[n+]3ccc4scnc4c3)CS[C@H]12)c1csc(N)n1)C(=O)O (stereo partly shown)" observed_measurement="> 250 mg/mL"

* * *

test system: M. morganii (1 strain), Ent. cloacae (2 strains) and Ser. marcescens (2 strains); assay: MIC, two-fold serial agar dilution, group (G-)-II; assay type: cell-based; conditions: (G-)-II, 5 strains, Mueller-Hinton agar; read-out: Geometric Mean of MIC
Known MIC of a selection of molecules
Reported Endpoint: MIC (µg/mL)

molecule="Cc1nc2c[n+](CC3=C(C(=O)[O-])N4C(=O)C(NC(=O)/C(=N\\OC5(C(=O)O)CCC5)c5csc(N)n5)[C@H]4SC3)ccc2s1 (stereo partly shown)" assayed_target="M. morganii (1 strain), Ent. cloacae (2 strains) and Ser. marcescens (2 strains)" reported_endpoint=MIC observed_measurement=0.25
molecule="CCO/N=C(\\C(=O)NC1C(=O)N2C(C(=O)[O-])=C(C[n+]3ccc4sc(N)nc4c3)CSC12)c1csc(N)n1 (stereo not shown)" assayed_target="M. morganii (1 strain), Ent. cloacae (2 strains) and Ser. marcescens (2 strains)" reported_endpoint=MIC observed_measurement=0.24
molecule="CO/N=C(\\C(=O)NC1C(=O)N2C(C(=O)[O-])=C(C[n+]3ccc4sc(N)nc4c3)CSC12)c1csc(N)n1 (stereo not shown)" assayed_target="M. morganii (1 strain), Ent. cloacae (2 strains) and Ser. marcescens (2 strains)" reported_endpoint=MIC observed_measurement=0.17
molecule="CO/N=C(\\C(=O)NC1C(=O)N2C(C(=O)[O-])=C(C[n+]3ccc4scnc4c3)CS[C@H]12)c1csc(N)n1 (stereo partly shown)" assayed_target="M. morganii (1 strain), Ent. cloacae (2 strains) and Ser. marcescens (2 strains)" reported_endpoint=MIC observed_measurement=0.16
molecule="CC(C)(O/N=C(\\C(=O)NC1C(=O)N2C(C(=O)[O-])=C(C[n+]3ccc4sc(N)nc4c3)CSC12)c1csc(N)n1)C(=O)O (stereo not shown)" assayed_target="M. morganii (1 strain), Ent. cloacae (2 strains) and Ser. marcescens (2 strains)" reported_endpoint=MIC observed_measurement=0.66
molecule="CO/N=C(\\C(=O)NC1C(=O)N2C(C(=O)[O-])=C(C[n+]3ccc4sc(NC(=O)N5CCCC5)nc4c3)CS[C@H]12)c1csc(N)n1 (stereo partly shown)" assayed_target="M. morganii (1 strain), Ent. cloacae (2 strains) and Ser. marcescens (2 strains)" reported_endpoint=MIC observed_measurement=2.8
molecule="CO/N=C(\\C(=O)NC1C(=O)N2C(C(=O)[O-])=C(C[n+]3ccc4sc(C(N)=O)nc4c3)CS[C@H]12)c1csc(N)n1 (stereo partly shown)" assayed_target="M. morganii (1 strain), Ent. cloacae (2 strains) and Ser. marcescens (2 strains)" reported_endpoint=MIC observed_measurement=0.39

* * *

Known concentration at 2 h of a selection of compounds
test: Mouse blood levels after single intramuscular injection; assay type: in vivo, mice; details: in vivo, im, 20 mg/kg
Reported Endpoint: concentration at 2 h (ng/mL)

compound="CO/N=C(\\C(=O)NC1C(=O)N2C(C(=O)[O-])=C(C[n+]3ccc4sc(C(N)=O)nc4c3)CS[C@H]12)c1csc(N)n1 (stereo partly shown)" reported_endpoint="concentration at 2 h" censoring_sign== observed_measurement=2100
compound="CO/N=C(\\C(=O)NC1C(=O)N2C(C(=O)[O-])=C(C[n+]3ccc4sc(C=O)nc4c3)CSC12)c1csc(N)n1 (stereo not shown)" reported_endpoint="concentration at 2 h" censoring_sign== observed_measurement=480
compound="CCO/N=C(\\C(=O)NC1C(=O)N2C(C(=O)[O-])=C(C[n+]3ccc4scnc4c3)CSC12)c1csc(N)n1 (stereo not shown)" reported_endpoint="concentration at 2 h" censoring_sign== observed_measurement=430
compound="CO/N=C(\\C(=O)NC1C(=O)N2C(C(=O)[O-])=C(C[n+]3ccc4sc(SC)nc4c3)CSC12)c1csc(N)n1 (stereo not shown)" reported_endpoint="concentration at 2 h" censoring_sign=< observed_measurement=100
compound="Nc1nc(/C(=N/OC2(C(=O)O)CCC2)C(=O)NC2C(=O)N3C(C(=O)[O-])=C(C[n+]4ccc5sc(N)nc5c4)CS[C@H]23)cs1 (stereo partly shown)" reported_endpoint="concentration at 2 h" censoring_sign== observed_measurement=670
compound="Cc1nc2c[n+](CC3=C(C(=O)[O-])N4C(=O)C(NC(=O)/C(=N\\OC5(C(=O)O)CCC5)c5csc(N)n5)[C@H]4SC3)ccc2s1 (stereo partly shown)" reported_endpoint="concentration at 2 h" censoring_sign=< observed_measurement=200
compound="CO/N=C(\\C(=O)NC1C(=O)N2C(C(=O)[O-])=C(C[n+]3ccc4sc(N)nc4c3)CSC12)c1csc(N)n1 (stereo not shown)" reported_endpoint="concentration at 2 h" censoring_sign== observed_measurement=1000

* * *

Known MIC of a selection of molecules
test system: Cephalothinsensitive E. coli (2 strains), Kl. pneumoniae (1 strain) and Pr. mirabilis (2 strains); assay: MIC, two-fold serial agar dilution, group (G-)-Ia; assay type: cell-based; conditions: 5 strains, Mueller-Hinton agar, read-out: Geometric Mean of MIC
Reported Endpoint: MIC (µg/mL)

molecule="CO/N=C(\\C(=O)NC1C(=O)N2C(C(=O)[O-])=C(C[n+]3ccc4sc(C(N)=O)nc4c3)CS[C@H]12)c1csc(N)n1 (stereo partly shown) [Ix]" observed_measurement=0.022
molecule="CC(C)(O/N=C(\\C(=O)NC1C(=O)N2C(C(=O)[O-])=C(C[n+]3ccc4scnc4c3)CS[C@H]12)c1csc(N)n1)C(=O)O (stereo partly shown) [Id]" observed_measurement=0.04
molecule="CNC(=O)Nc1nc2c[n+](CC3=C(C(=O)[O-])N4C(=O)C(NC(=O)/C(=N\\OC)c5csc(N)n5)[C@H]4SC3)ccc2s1 (stereo partly shown) [Ir]" observed_measurement=0.025
molecule="Nc1nc(/C(=N/OCC(=O)O)C(=O)NC2C(=O)N3C(C(=O)[O-])=C(C[n+]4ccc5sc(N)nc5c4)CS[C@H]23)cs1 (stereo partly shown) [Ig]" observed_measurement=0.0072
molecule="CO/N=C(\\C(=O)NC1C(=O)N2C(C(=O)[O-])=C(C[n+]3ccc4sc(NC(=O)OC)nc4c3)CS[C@H]12)c1csc(N)n1 (stereo partly shown) [Is]" observed_measurement=0.038
molecule="CCO/N=C(\\C(=O)NC1C(=O)N2C(C(=O)[O-])=C(C[n+]3ccc4sc(N)nc4c3)CSC12)c1csc(N)n1 (stereo not shown) [Ij]" observed_measurement=0.02
molecule="CO/N=C(\\C(=O)NC1C(=O)N2C(C(=O)[O-])=C(C[n+]3ccc4sc(N(C)C)nc4c3)CS[C@H]12)c1csc(N)n1 (stereo partly shown) [Iu]" observed_measurement=0.012

Hello, the source for this data is patent US4500526A, in case you need it.
